- Organism: Rattus norvegicus
- procedure.summary: DrugMatrix - Regimen: Daily Repeat
- Assay type: toxicity, organism-based, Sprague-Dawley
- Design: regimen Daily Repeat, gender Male, age 6-8 weeks
- experimental.parameters: in vivo, po, 0 mg/kg, 72 h, tissue Plasma, route oral GAVAGE, dose level Control, time 3 day, vehicle .5 % CMC
readout: TOTAL PROTEIN
State the value, then name its unit.

Below are worked cases with known answers.
* CC(=O)Nc1ccc2c(c1)Cc1ccccc1-2 | 5.9 G/DL
* Cl.NC[C@H]1CC[C@H](C(=O)Oc2ccc(CCC(=O)O)cc2)CC1 [CETRAXATE HYDROCHLORIDE] | 5.98 G/DL

Now examine the next entry.
Record summary for Cc1cc2c(s1)Nc1ccccc1N=C2N1CCN(C)CC1 : reported TOTAL PROTEIN = 5.82 G/DL
